system: TE-5 (Esophageal Squamous Cell Carcinoma); test: combination Emax (second highest fraction inhibited in the dose matrix, 72 h); higher = more inhibition; extreme values may be limits of the assay
combination Emax vs 0.3: at or above is 1, below is -1.

compound	class label
Cc1c2c(nn1C)CSCc1cc(n(C)n1)CSc1cc(c3ccccc3c1)OCCCc1c(C(=O)O)n(C)c3c-2c(Cl)ccc13 [AZD5991] + C[C@@H]1COCCN1C2=NC(=NC(=C2)C3(CC3)[S@](=N)(=O)C)C4=C5C=CNC5=NC=C4 [AZD6738] (first compound max 1 µM, 7x7, partner max 10 µM)	1
NC1(C(=O)N[C@@H](CCO)c2ccc(Cl)cc2)CCN(c2ncnc3[nH]ccc23)CC1 [Capivasertib] + C[C@@H]1COCCN1C2=NC(=NC(=C2)C3(CC3)[S@](=N)(=O)C)C4=C5C=CNC5=NC=C4 [AZD6738] (first compound max 10 µM, 7x7, partner max 10 µM)	1
CCN(CCO)CCCOc1ccc2c(Nc3cc(CC(=O)Nc4cccc(F)c4)[nH]n3)ncnc2c1 [AZD2811] + O=C(c1cc(Cc2n[nH]c(=O)c3ccccc23)ccc1F)N1CCN(C(=O)C2CC2)CC1 [Olaparib] (first compound max 1 µM, 7x7, partner max 10 µM)	-1
COc1nnc2ccc(N3CCC(c4ccc(OCCN5CCN(C)C(=O)[C@H]5C)cc4)CC3)nn12 [AZD5153] + Cn1cnc2c(F)c(Nc3ccc(Br)cc3Cl)c(C(=O)NOCCO)cc21 [Selumetinib] (first compound max 1 µM, 7x7, partner max 10 µM)	1
C=CCn1c(=O)c2cnc(Nc3ccc(N4CCN(C)CC4)cc3)nc2n1-c1cccc(C(C)(C)O)n1 [AZD1775] + CCc1c2c(nc3ccc(O)cc13)-c1cc3c(c(=O)n1C2)COC(=O)[C@]3(O)CC [SN-38] (first compound max 1 µM, partner max 0.3 µM)	1
O=C(c1cc(Cc2n[nH]c(=O)c3ccccc23)ccc1F)N1CCN(C(=O)C2CC2)CC1 [Olaparib] + CC1(C)CCC(CN2CCN(c3ccc(C(=O)NS(=O)(=O)c4ccc(NCC5CCOCC5)c([N+](=O)[O-])c4)c(Oc4cnc5[nH]ccc5c4)c3)CC2)=C(c2ccc(Cl)cc2)C1 [Venetoclax] (first compound max 10 µM, 7x7, partner max 1 µM)	-1
COc1cc2c(cc1OCCCCCOc1cc3c(cc1OC)C(=O)N1C=C(C)C[C@H]1C=N3)N=C[C@@H]1CC(C)=CN1C2=O [SG3199] + O=C(c1cc(Cc2n[nH]c(=O)c3ccccc23)ccc1F)N1CCN(C(=O)C2CC2)CC1 [Olaparib] (first compound max 0.001 µM, 7x7, partner max 10 µM)	-1
Cc1cc2ncnn2cc1Nc1ncc2c(n1)n(C1CCOCC1)c(=O)n2C [AZD7648] + O=C(c1cc(Cc2n[nH]c(=O)c3ccccc23)ccc1F)N1CCN(C(=O)C2CC2)CC1 [Olaparib] (first compound max 10 µM, 7x7, partner max 10 µM)	-1
CS(=O)(=O)CCNCc1ccc(-c2ccc3ncnc(Nc4ccc(OCc5cccc(F)c5)c(Cl)c4)c3c2)o1 [Lapatinib] + Cn1cnc2c(F)c(Nc3ccc(Br)cc3Cl)c(C(=O)NOCCO)cc21 [Selumetinib] (first compound max 10 µM, 7x7, partner max 10 µM)	1
CC(=O)Nc1cccc(-n2c(=O)n(C3CC3)c(=O)c3c(Nc4ccc(I)cc4F)n(C)c(=O)c(C)c32)c1 [Trametinib] + Cc1nc(-c2cn3c(n2)-c2ccc(-c4cnn(C(C)(C)C(N)=O)c4)cc2OCC3)n(C(C)C)n1 [Taselisib] (first compound max 1 µM, 7x7, partner max 10 µM)	1

q: Could you verify whether the entry Cc1cc2ncnn2cc1Nc1ncc2c(n1)n(C1CCOCC1)c(=O)n2C [AZD7648] + CN(C)CCCOc1ccc(-c2ccc3ncc4c(c3c2)n(C2CCOCC2)c(=O)n4C)cn1 [AZD0156] (first compound max 10 µM, 7x7, partner max 1 µM) shows combination Emax of no less than 0.3?
a: 1

q: Test whether the compound CC(=O)c1c(C)c2cnc(Nc3ccc(N4CCNCC4)cn3)nc2n(C2CCCC2)c1=O [Palbociclib] + Cc1c2c(nn1C)CSCc1cc(n(C)n1)CSc1cc(c3ccccc3c1)OCCCc1c(C(=O)O)n(C)c3c-2c(Cl)ccc13 [AZD5991] (first compound max 10 µM, 7x7, partner max 1 µM) records combination Emax of 0.3 or higher.
a: -1

q: Hello, I need to know if CC1(C)CCC(CN2CCN(c3ccc(C(=O)NS(=O)(=O)c4ccc(NCC5CCOCC5)c([N+](=O)[O-])c4)c(Oc4cnc5[nH]ccc5c4)c3)CC2)=C(c2ccc(Cl)cc2)C1 [Venetoclax] + CN(C)CCCOc1ccc(-c2ccc3ncc4c(c3c2)n(C2CCOCC2)c(=O)n4C)cn1 [AZD0156] (first compound max 1 µM, 7x7, partner max 1 µM) has measured combination Emax not below 0.3. Thanks!
a: -1

###

test system: KATOIII (Gastric Carcinoma); test: Bliss excess, mean over the matrix (fraction); higher = more synergy
Measured Bliss excess by item
The answer should be written as a number, with no unit following it.

Observe how each entry below is paired with its result.
compound	measured value
CN(C)CCCOc1ccc(-c2ccc3ncc4c(c3c2)n(C2CCOCC2)c(=O)n4C)cn1 [AZD0156] + C=CCn1c(=O)c2cnc(Nc3ccc(N4CCN(C)CC4)cc3)nc2n1-c1cccc(C(C)(C)O)n1 [AZD1775] (first compound max 1 µM, partner max 1 µM)	-0.064
CCc1c2c(nc3ccc(O)cc13)-c1cc3c(c(=O)n1C2)COC(=O)[C@]3(O)CC [SN-38] + O=C(c1cc(Cc2n[nH]c(=O)c3ccccc23)ccc1F)N1CCN(C(=O)C2CC2)CC1 [Olaparib] (first compound max 0.3 µM, 7x7, partner max 10 µM)	-0.0478

Turning now to a further compound:
q: State its Bliss excess: CC1(C)CCC(CN2CCN(c3ccc(C(=O)NS(=O)(=O)c4ccc(NCC5CCOCC5)c([N+](=O)[O-])c4)c(Oc4cnc5[nH]ccc5c4)c3)CC2)=C(c2ccc(Cl)cc2)C1 [Venetoclax] + C1CN(CCC1(C(=O)N[C@@H](CCO)C2=CC=C(C=C2)Cl)N)C3=NC=NC4=C3C=CN4 [Capivasertib] (first compound max 1 µM, 7x7, partner max 3 µM)
a: -0.0691

###

tested on: IHH-4 (Thyroid Gland Carcinoma); test: Bliss excess, mean over the matrix (fraction); higher = more synergy
Bliss excess by entry:
I only need the number, thanks.

Below are worked cases with known answers.
molecule	measured value
Cc1c2c(nn1C)CSCc1cc(n(C)n1)CSc1cc(c3ccccc3c1)OCCCc1c(C(=O)O)n(C)c3c-2c(Cl)ccc13 [AZD5991] + Nc1ccn([C@@H]2O[C@H](CO)[C@@H](O)C2(F)F)c(=O)n1 [Gemcitabine] (first compound max 1 µM, 7x7, partner max 0.3 µM)	0.0122
CC1(C)CCC(CN2CCN(c3ccc(C(=O)NS(=O)(=O)c4ccc(NCC5CCOCC5)c([N+](=O)[O-])c4)c(Oc4cnc5[nH]ccc5c4)c3)CC2)=C(c2ccc(Cl)cc2)C1 [Venetoclax] + C[C@@H](Nc1cc(F)cc(F)c1)c1cc(C(=O)N(C)C)cc2c(=O)cc(N3CCOCC3)oc12 [AZD8186] (first compound max 1 µM, 7x7, partner max 3 µM)	0.0138
NC1(C(=O)N[C@@H](CCO)c2ccc(Cl)cc2)CCN(c2ncnc3[nH]ccc23)CC1 [Capivasertib] + CC(=O)c1c(C)c2cnc(Nc3ccc(N4CCNCC4)cn3)nc2n(C2CCCC2)c1=O [Palbociclib] (first compound max 10 µM, 7x7, partner max 10 µM)	0.0815

q: Identify measured Bliss excess associated with Cc1c2c(nn1C)CSCc1cc(n(C)n1)CSc1cc(c3ccccc3c1)OCCCc1c(C(=O)O)n(C)c3c-2c(Cl)ccc13 [AZD5991] + Cn1cnc2c(F)c(Nc3ccc(Br)cc3Cl)c(C(=O)NOCCO)cc21 [Selumetinib] (first compound max 1 µM, 7x7, partner max 3 µM)
a: -0.026

q: Return reported Bliss excess. Input molecule: CC1(C)CCC(CN2CCN(c3ccc(C(=O)NS(=O)(=O)c4ccc(NCC5CCOCC5)c([N+](=O)[O-])c4)c(Oc4cnc5[nH]ccc5c4)c3)CC2)=C(c2ccc(Cl)cc2)C1 [Venetoclax] + C[C@@H]1COCCN1C2=NC(=NC(=C2)C3(CC3)[S@](=N)(=O)C)C4=C5C=CNC5=NC=C4 [AZD6738] (first compound max 1 µM, 7x7, partner max 10 µM)
a: -0.0482

q: Using known records, supply Bliss excess for COc1nnc2ccc(N3CCC(c4ccc(OCCN5CCN(C)C(=O)[C@H]5C)cc4)CC3)nn12 [AZD5153] + CCN(CCO)CCCOc1ccc2c(Nc3cc(CC(=O)Nc4cccc(F)c4)[nH]n3)ncnc2c1 [AZD2811] (first compound max 1 µM, 7x7, partner max 1 µM)
a: 0.0167

q: Quote Bliss excess reported for C[C@@H]1COCCN1c1cc(C2([S@](C)(=N)=O)CC2)nc(-c2ccnc3[nH]ccc23)n1 [AZD6738] + C1CC(C1)(C(=O)[O-])C(=O)[O-].N.N.[Pt+2] [Carboplatin] (first compound max 10 µM, 7x7, partner max 10 µM) please.
a: 0.0159

q: Return Bliss excess (reported value) for this molecule: CC1(C)CCC(CN2CCN(c3ccc(C(=O)NS(=O)(=O)c4ccc(NCC5CCOCC5)c([N+](=O)[O-])c4)c(Oc4cnc5[nH]ccc5c4)c3)CC2)=C(c2ccc(Cl)cc2)C1 [Venetoclax] + C1CN(CCC1(C(=O)N[C@@H](CCO)C2=CC=C(C=C2)Cl)N)C3=NC=NC4=C3C=CN4 [Capivasertib] (first compound max 1 µM, 7x7, partner max 3 µM)
a: -0.0187

q: Give Bliss excess for C[C@@H](Nc1cc(F)cc(F)c1)c1cc(C(=O)N(C)C)cc2c(=O)cc(N3CCOCC3)oc12 [AZD8186] + CC(=O)c1c(C)c2cnc(Nc3ccc(N4CCNCC4)cn3)nc2n(C2CCCC2)c1=O [Palbociclib] (first compound max 10 µM, 7x7, partner max 10 µM)
a: 0.125
